Quick record: Ki, VchγCA (Vibrio cholerae).
Give your result in µM as a bare value.

Consider the reported Ki for these compounds:
Cc1cccc(N2CCN(c3ccc(S(N)(=O)=O)cc3)C2=O)n1 [7c]	80.2
CCCCN1CCN(c2ccc(S(N)(=O)=O)cc2)C1=O [9c]	54.9
CC(C)NCC(=O)Nc1ccc(S(N)(=O)=O)cc1 [10b]	58.3
NS(=O)(=O)c1ccc(N2CCN(c3ccc(Cl)cc3)C2=O)cc1 [3c]	50.2
Cc1ccc(NCC(=O)Nc2cccc(S(N)(=O)=O)c2)cc1 [12b]	9.6

// Ki lookup, key: NS(=O)(=O)c1ccc(N2CCN(c3ccccc3F)C2=O)cc1 [6c]
82.8

One more compound: NS(=O)(=O)c1cccc(NC(=O)CNc2ccccc2Br)c1 [14b]
72.4

One more compound: CCCCNCCNc1cccc(S(N)(=O)=O)c1 [15a]
69.3

###

Experimental System: UniProt Q9KMP6
Measurement Type: Ki (nM)
Give your result in nM as a bare value.

Consider the reported Ki for these compounds:
CCCCNCC(=O)Nc1ccc(S(N)(=O)=O)cc1	78.6
CCCCN1CCN(c2ccc(S(N)(=O)=O)cc2)C1=O	4.7
NS(=O)(=O)c1ccc(NCCNc2ccccc2F)cc1	36.2
Cc1ccc(N2CCN(c3ccc(S(N)(=O)=O)cc3)C2=O)cc1	27
CCCCNCC(=O)Nc1cccc(S(N)(=O)=O)c1 [15b]	66.4

Which measured Ki belongs to Cc1ccc(N2CCN(c3cccc(S(N)(=O)=O)c3)C2=O)cc1 [12c] , tested on UniProt Q9KMP6?
11

One more compound: NS(=O)(=O)c1cccc(NC(=O)CNc2ccccc2)c1 [11b]
59.4

One more compound: Cc1ccc(NCC(=O)Nc2cccc(S(N)(=O)=O)c2)cc1 [12b]
73.1

One more compound: Cc1cccc(NCCNc2ccc(S(N)(=O)=O)cc2)n1
37

One more compound: NS(=O)(=O)c1ccc(NC(=O)CNc2ccc(Cl)cc2)cc1
66

One more compound: CC(C)N1CCN(c2ccc(S(N)(=O)=O)cc2)C1=O [10c]
9.8

One more compound: CCCCNCCNc1cccc(S(N)(=O)=O)c1 [15a]
80.3

One more compound: CC(C)NCCNc1ccc(S(N)(=O)=O)cc1 [10a]
7.5

###

Quick record: pKi, VchαCA (Vibrio cholerae, UniProt Q9KMP6).
Please report pKi as the negative decimal logarithm of the molar concentration, giving only the number.

// pKi lookup, key: NS(=O)(=O)c1ccc(NC(=O)CNc2ccc(I)cc2)cc1
7.64

One more compound: CCCCNCCNc1ccc(S(N)(=O)=O)cc1
7.10

###

Experimental System: VchαCA (Vibrio cholerae)
Sequence (Q9KMP6 entry or part of it): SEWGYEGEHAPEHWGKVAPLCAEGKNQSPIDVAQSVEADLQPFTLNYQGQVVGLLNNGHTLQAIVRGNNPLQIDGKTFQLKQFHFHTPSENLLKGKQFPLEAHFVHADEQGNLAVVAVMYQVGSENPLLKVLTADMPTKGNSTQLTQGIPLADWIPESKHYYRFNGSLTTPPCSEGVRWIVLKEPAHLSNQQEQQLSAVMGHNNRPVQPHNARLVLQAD
Entries whose Ki is below 60 nM take Criterion met; entries at or above 60 nM take Criterion not met.

A selection of reference data follows.
NS(=O)(=O)c1ccc(N2CCN(c3ccccc3)C2=O)cc1 [1c]	Criterion met
NS(=O)(=O)c1ccc(N2CCN(Cc3ccccc3)C2=O)cc1 [8c]	Criterion met
NS(=O)(=O)c1ccc(NCCNCc2ccccc2)cc1 [8a]	Criterion met
CC(C)NCC(=O)Nc1ccc(S(N)(=O)=O)cc1 [10b]	Criterion met
CCCCN1CCN(c2cccc(S(N)(=O)=O)c2)C1=O [15c]	Criterion met

Input NS(=O)(=O)c1ccc(N2CCN(c3ccc(Cl)cc3)C2=O)cc1 [3c] ; condition: Ki strictly below 60 nM. Does it hold?
Criterion met

One more compound: NS(=O)(=O)c1ccc(N2CCN(c3ccc(I)cc3)C2=O)cc1 [4c]
Criterion met

One more compound: NS(=O)(=O)c1ccc(NCCNc2ccccc2Br)cc1 [5a]
Criterion not met

One more compound: NS(=O)(=O)c1ccc(NC(=O)CNc2ccccc2F)cc1 [6b]
Criterion not met

The reported numbers originate from paper PMC10120512.
